# System: Ca9-22 (Head and Neck Carcinoma)
# measurement notes: combination Emax (second highest fraction inhibited in the dose matrix, 72 h); higher = more inhibition; extreme values may be limits of the assay
measurement type: combination Emax
Write the number on its own, no unit after it.

[ask] Give combination Emax for the following compound: N#Cc1cnc(Nc2cc(NC[C@H]3CNCCO3)c(C(F)(F)F)cn2)cn1 [SRA737] + O=c1[nH]cc(F)c(=O)[nH]1 [5-Fluorouracil] (first compound max 10 µM, 7x7, partner max 20 µM)
[reply] 0.606

[ask] Give combination Emax for the following compound: COc1nnc2ccc(N3CCC(c4ccc(OCCN5CCN(C)C(=O)[C@H]5C)cc4)CC3)nn12 [AZD5153] + Cc1c2c(nn1C)CSCc1cc(n(C)n1)CSc1cc(c3ccccc3c1)OCCCc1c(C(=O)O)n(C)c3c-2c(Cl)ccc13 [AZD5991] (first compound max 1 µM, 7x7, partner max 1 µM)
[reply] 0.815

[ask] Give combination Emax for the following compound: O=C(c1cc(Cc2n[nH]c(=O)c3ccccc23)ccc1F)N1CCN(C(=O)C2CC2)CC1 [Olaparib] + CN(CC[C@H](CSC1=CC=CC=C1)NC2=C(C=C(C=C2)S(=O)(=O)NC(=O)C3=CC=C(C=C3)N4CCC(CC4)[C@H](C5=CC=CC=C5C6=CC=C(C=C6)Cl)O)S(=O)(=O)C(F)(F)F)CCO [AZD4320] (first compound max 10 µM, 7x7, partner max 1 µM)
[reply] 0.349
